Target: human TAS2R7 (Homo sapiens, UniProt Q9NYW3)
Construct: first 45 residues of rat somatostatin receptor 3 (signal peptide) (N); expressed in transfected cells; host or cells: HEK293 (PEAKrapid, ATCC CRL-2828)
Sequence (Q9NYW3 1-318): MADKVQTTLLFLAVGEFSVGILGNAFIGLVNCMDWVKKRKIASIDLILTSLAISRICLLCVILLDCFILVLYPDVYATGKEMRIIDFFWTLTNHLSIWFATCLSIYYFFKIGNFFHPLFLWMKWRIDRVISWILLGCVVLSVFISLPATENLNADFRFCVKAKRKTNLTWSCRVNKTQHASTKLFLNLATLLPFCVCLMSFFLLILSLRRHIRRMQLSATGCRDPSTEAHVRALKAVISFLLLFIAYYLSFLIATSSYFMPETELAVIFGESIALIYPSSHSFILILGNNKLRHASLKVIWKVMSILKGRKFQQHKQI
Experiment: Calcium mobilization assay, HEK293 cells transfected with TAS2R7 and Gα16-gust44
Assay type: cell-based
Conditions: assay solution containing calcium; Figures 3A, 4C; read-out: EC50, TAS2R7, in the presence of calcium
Quick list: pEC50 per entry.
Convention used: pEC50 is expressed as -log10 of the molar concentration.

O=S(=O)([O-])[O-].[Zn+2]	2.62
[Cl-].[Cl-].[Mg+2]	2.11
[Cl][Mn][Cl]	2.65
[Ca+2].[Cl-].[Cl-]	2.12

[Q] Given the entry `O=S(=O)([O-])[O-].[Cu+2]` , report its measured pEC50.
[A] 2.72

[Q] Given the entry O=C(O)c1cc(=O)c2c(OCC(O)COc3cccc4oc(C(=O)O)cc(=O)c34)cccc2o1 [cromolyn, reference compound] , report its measured pEC50.
[A] 2.18
